The reader will find reported normalized growth values listed item by item below.
experiment-notes: chemical genetic growth profiling, strain panel (AID 1159580);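 also: tested at 20 µM; growth read once vehicle control cultures reached saturation at 30 °C; 1 = growth at the plate median or of vehicle wells; lower values mean less growth of the strain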
condition-parameters: S. cerevisiae deletion strains, growth OD, locus YEL003W, strain gim4, hits give low values
The campaign covered roughly 5,500 compounds. About 2,000 (36%) were called active. Inconclusive results (about 18%) are left out. This is one part of the list.
metric: normalized growth

>>> reported("CCCCCN=C(N)N/N=C\\c1c[nH]c2ccc(OC)cc12")
1.01
>>> reported("Cc1cccc(N(C)C(=S)Oc2ccc3ccccc3c2)c1")
1
>>> reported("COc1c2occc2cc2ccc(=O)oc12")
0.988
>>> reported("O=c1ccc2cc(O[C@@H]3O[C@H](CO)[C@@H](O)[C@H](O)[C@H]3O)c(O)cc2o1")
0.986
>>> reported("COc1cc2ccc(=O)oc2c2ccoc12")
0.818
>>> reported("O=c1c(-c2ccc3c(c2)OCO3)coc2cc(O)ccc12")
1
>>> reported("CC1(C)C=Cc2c(cc3occ(-c4ccc5c(c4)OCO5)c(=O)c3c2O)O1")
0.932
>>> reported("O=c1[nH]c2ccccc2n1CCCN1CCC(n2c(=O)[nH]c3cc(Cl)ccc32)CC1")
0.976
>>> reported("CC(C)=CCc1c(O)cc2occ(-c3ccc4c(c3)OCO4)c(=O)c2c1O")
0.932
>>> reported("COc1cc2ccc(=O)oc2cc1O")
0.987
>>> reported("O=C1c2ccccc2-c2cccc3cccc1c23")
0.967
>>> reported("CC(C)CCCC(C)[C@H]1CCC2C3CC[C@H]4CC(=O)CC[C@]4(C)C3CC[C@@]21C (stereo partly drawn)")
0.981
>>> reported("CC(=O)O[C@@H]1CC2C(C)(C)[C@H](O)C[C@H](O)[C@]2(C)C2CC[C@@]3(C)C(=CC(=O)O[C@H]3c3ccoc3)[C@@]21C (stereo partly drawn)")
1.01
>>> reported("CN1CCN(C(c2ccccc2)c2ccccc2)CC1")
0.984
>>> reported("COc1ccc2ccc(=O)oc2c1CC=C(C)C")
0.832
>>> reported("COc1c2c(cc3occ(-c4ccc5c(c4)OCO5)c(=O)c13)OC(C)(C)C=C2")
1
>>> reported("COc1cc2c(cc1-c1coc3c4c(c(OC)cc3c1=O)OC(C)(C)C=C4)OCO2")
1.02
>>> reported("Cn1cnc([N+](=O)[O-])c1Sc1ncnc2nc[nH]c12")
1.03
>>> reported("COc1cc2ccc(=O)oc2c(OC)c1OC")
0.968
>>> reported("CC(C(=O)O)c1ccc(N2Cc3ccccc3C2=O)cc1 (stereo not drawn)")
1.01
>>> reported("CSCCC(NC=O)C(=O)NC(CC(C)C)C(=O)NC(Cc1ccccc1)C(=O)O (stereo not drawn)")
1
>>> reported("CC(C)=CCOc1c2occc2cc2ccc(=O)oc12")
0.929
>>> reported("COc1ccc2c(=O)c(CC(=O)O)coc2c1")
0.98
